// PBM binding z-score lookup, one value per entry
Test system: FXR:RXRa (NR concentration 270 nM, RXRa partner concentration 90 nM)
assay-details: PBM binding z-score (relative to random genomic background probes); higher = stronger binding; sequences stand for … in GC…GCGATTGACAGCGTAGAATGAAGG
test-readout: PBM binding z-score

CGTCCAAGGTCAGAGAGGTCAGTGAATGCCGAGT ... 6.03
ATATGTAGGTTAGCAGGGGTCATTCAGACTAGGC ... 5.14
CCCAGCAGGCCAATCTGGGTCACTCAAGGCTTGA ... 0.369
CTACCAAGGTGAACAAGGTCATTGATTACTATTC ... 3.73
AATACAGTGTCACTAGGCCAGAGTAGGTACGAAT ... -0.0447
CCTTACGGGTCTCGAGGTTATAGCACGACGAGCG ... 0.0293
TCTATTAGTGGATTAGGGCAACCGAAACAGCGGA ... 0.803
GCTTACGGGTCAAAGGTGATAGCATGAATAGAAT ... 6.24
CCAGACAGGTGTGAAGGTAACTCAGCCTCGATTA ... -0.289
TAGCCTAGCTCAGATCGGGCCAGTATACGCTATA ... -0.961
TCTAGCAGGCCAGAGCGTCACTCAAGAGGTACGG ... -0.546
AGTCAAAGTTCAGGACGAGGTAAGGTAAAGCACG ... 4.31
ACTAGCAGCCCAAGGGTCACTCAAGATTAGTCCG ... 2.27
AGTCAAAGTGCACTAGGTAACGTAAGATTCAGCT ... -0.308
TCTGCTAGGTGAGTTGGTCAGCTAACGAGCTGCC ... -0.433
ATCTCTTGGTAACCAAGTTCAGTGAATGCCGAAC ... 0.478
CCTTACAGGTCACTCCAGGTTATAGCATCGGAGT ... 5.51
TCTATTAGTTGAAGGGCAAACGACGAGTCCGTTT ... 0.768
CGCCCAAGGTCATAGGAGGTCAGTGAAGACAGAT ... 7.29
GCGACTGGGGCAAAGCAGGTTACCCTAAGGTTGG ... 0.366
TCATATAGGTAATACAGGTGCAAGTCGGCATCTA ... 0.658
ATCTCTAGGTAAAGATAGTACAGTGAATGCAAAT ... 0.368
CAGCCTAGGTCAGGGCCATTATAGGAGGAACGTT ... 1.65
CTCGAAAGGTCGGGTGAGGTGAGTATACGGATAA ... 3
CAAACTAGGTCAAGACGTCAAAGTCCGCTTCCCG ... 3.84
CCGACTCGGGCAAGGTTACCATAACGCACAGCCA ... -0.303
CGTCCAAGGTCATAGGAGGTCAGAGAAGACAGAT ... 8
ATCTCTAGGTAAAAGTTCAGCGAATCCCGAGGAT ... 1.36
TCTATTAGTTGAGTAGGGCAACCGAAACAGCGGA ... 0.117
GCTGCTAGGTCACCTGATGGTCAGCTAAAGCTCG ... 3.25
CGTCCAAGGTCATAGGAGGTCAGTGAAGACAGAT ... 7.58
GGAACGAGGGCATTCGAGGTGATAGCATGGCGAT ... 1.32
CCTTACGGGTCACTGACATGTTATAGCATTTGGA ... 5.55
CCTTATGGGTCACTGACAGGTTATAGCATTTGGA ... 3.95
CAAACTAGGTCACGAAAAGTCAAAGTCGAATGAC ... 4.52
AGAACGAGGGCAATGAGTTTATAGCACGGGTGGC ... 0.163
GGAACGAGAGCAAGTTGATAGCAGAGTTTGATGG ... -0.63
AGAATGAGGTTAAGATAAGGGAAACAGAATACAT ... 2.28
CCGAGTAGGTTATGGGGCACTCAGGCAACGGTGA ... 0.104
GCTAGTTGGTCGGTAAAAGGTCACACACCGGTCG ... 3.17
CCGACTGGGGCATACGGTTACCATAAGCCAGCCC ... -0.196
ATCGAAAGGTCGAGGTGAGTCTAGAGAAAGGGAA ... 4.71
ATCTCTAGATAAAAGTTCAGTGAATCCCGAGGAT ... 0.0145
ACTATTAGTTGACTTAGGTCAACCGATACGACGC ... 1.69
CGAACGAGGGCATGAGATGATAGCAAATGCCGAT ... 0.416
TCTTGTAGATCAAAGGTTCAGAAAGCCGAAGCCT ... 0.694
GCATATAGGTAATACAAGTTGAAAGTCCGATTGT ... 0.281
CCTACTAGTTGACCATAAGGGCAACCGAAGCTCG ... 0.832
ATCTTTAGGTAAAGATAGTTCAGTGAATGCAAAT ... 0.178
CCTAGCAGGCCAGGGTCAATCAAGCATTTCGCTT ... 3.41
CGAACTAGGTCAGAAGAGGACAGTGAAGGATGAT ... 1.71
